Entry source: patent US7005505

study system: T1, FLT-1 IgG (UniProt P17948 27-758)
T1 construct: Construct only cited from Park et al. 1994; also called FLT-IgG; FLT-1 receptor-IgG chimera; not shown: IgG part of the chimera (captured by anti-human IgG Fc)
T1 sequence (P17948 27-758): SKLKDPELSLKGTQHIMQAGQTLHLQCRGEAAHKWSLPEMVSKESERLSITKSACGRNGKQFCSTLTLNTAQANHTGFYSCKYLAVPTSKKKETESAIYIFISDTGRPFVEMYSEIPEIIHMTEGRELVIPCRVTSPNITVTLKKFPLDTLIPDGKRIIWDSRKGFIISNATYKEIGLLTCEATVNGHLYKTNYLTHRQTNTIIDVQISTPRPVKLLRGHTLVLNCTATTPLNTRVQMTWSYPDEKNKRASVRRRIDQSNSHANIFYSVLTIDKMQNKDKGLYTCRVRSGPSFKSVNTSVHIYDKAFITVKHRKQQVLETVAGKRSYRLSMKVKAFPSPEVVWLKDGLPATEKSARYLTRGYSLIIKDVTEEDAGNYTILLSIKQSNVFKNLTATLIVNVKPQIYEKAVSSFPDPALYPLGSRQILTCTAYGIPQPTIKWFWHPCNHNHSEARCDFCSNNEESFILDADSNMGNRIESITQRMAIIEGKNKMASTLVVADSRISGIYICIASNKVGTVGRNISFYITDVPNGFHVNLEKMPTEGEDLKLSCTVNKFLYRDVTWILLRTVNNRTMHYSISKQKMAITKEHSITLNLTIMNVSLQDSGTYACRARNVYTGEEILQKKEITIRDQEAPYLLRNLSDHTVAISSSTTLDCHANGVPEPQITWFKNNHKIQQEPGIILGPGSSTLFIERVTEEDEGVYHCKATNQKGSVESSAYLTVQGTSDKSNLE
assay details: competition with 125I-VEGF165 for FLT-1-IgG, radioligand plate assay
quantity kind: IC50 (ng/mL)
Your answer should be a plain number; it is taken to be in ng/mL.

Known results for binders:
binder: E42N, E44S VEGF (ligand, N-linked carbohydrate at position 42 (apparently glycosylated), Neo-glycosylation control mutant from 293 cells, conditioned medium) APMAEGGGQNHHEVVKFMDVYQRSYCHPIETLVDIFQEYPDNISYIFKPSCVPLMRCGGCCNDEGLECVPTEESNITMQIMRIKPHQGQHIGEMSFLQHNKCECRPKKDRARQENPCGPCSERRKHLFVQDPQTCKCSCKNTDSRCKARQLELNERTCRCDKPRR
IC50 / ng/mL: 0.77

binder: K48A VEGF (ligand, VEGF165 mutant from 293 cells, conditioned medium) APMAEGGGQNHHEVVKFMDVYQRSYCHPIETLVDIFQEYPDEIEYIFAPSCVPLMRCGGCCNDEGLECVPTEESNITMQIMRIKPHQGQHIGEMSFLQHNKCECRPKKDRARQENPCGPCSERRKHLFVQDPQTCKCSCKNTDSRCKARQLELNERTCRCDKPRR
IC50 / ng/mL: 1.08

In the following, a different binder is considered.
[ask] Consider the binder shown here: E42A VEGF (ligand, VEGF165 mutant from 293 cells, conditioned medium) APMAEGGGQNHHEVVKFMDVYQRSYCHPIETLVDIFQEYPDAIEYIFKPSCVPLMRCGGCCNDEGLECVPTEESNITMQIMRIKPHQGQHIGEMSFLQHNKCECRPKKDRARQENPCGPCSERRKHLFVQDPQTCKCSCKNTDSRCKARQLELNERTCRCDKPRR What is its recorded IC50?
[reply] 0.51
